Hello, the source for this data is ChEMBL document CHEMBL1201862, in case you need it.

- Experimental Target: Leucine aminopeptidase (Plasmodium falciparum 3D7, UniProt Q8IL11)
- Sequence (Q8IL11 whole entry): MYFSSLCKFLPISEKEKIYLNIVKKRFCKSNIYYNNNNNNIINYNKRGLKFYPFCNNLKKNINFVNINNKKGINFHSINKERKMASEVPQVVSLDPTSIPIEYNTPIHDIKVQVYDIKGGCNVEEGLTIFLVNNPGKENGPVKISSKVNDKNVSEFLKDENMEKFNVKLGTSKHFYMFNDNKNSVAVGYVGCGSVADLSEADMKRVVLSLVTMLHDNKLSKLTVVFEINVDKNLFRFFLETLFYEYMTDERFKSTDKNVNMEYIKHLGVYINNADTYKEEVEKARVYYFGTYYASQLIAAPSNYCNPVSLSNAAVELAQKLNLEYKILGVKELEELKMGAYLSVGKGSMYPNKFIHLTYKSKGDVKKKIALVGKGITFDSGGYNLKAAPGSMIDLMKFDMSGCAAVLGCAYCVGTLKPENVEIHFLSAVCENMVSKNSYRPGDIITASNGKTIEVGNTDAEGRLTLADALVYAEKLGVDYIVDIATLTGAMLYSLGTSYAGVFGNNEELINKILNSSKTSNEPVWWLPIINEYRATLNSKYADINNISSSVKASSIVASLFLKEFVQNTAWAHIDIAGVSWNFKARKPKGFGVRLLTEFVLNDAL
- Method Description: P. falciparum M17LAP inhibitors, primary screen, biochemical, fluorogenic H-Leu-NHMec substrate, 1536-well (AID 1619)
- Assay type: functional
Calls of active or inactive are those of the source. No rule for the calls is given here.

[
  {
    "Compound": "N#Cc1c(NC(=O)C2CC=CCC2C(=O)O)sc2c1CCCCCC2 (centres undefined)",
    "IC50": "< 1 µM (active)"
  },
  {
    "Compound": "O=C(N/N=C/c1ccccc1C(=O)O)c1ccc(COc2cccc3cccnc23)cc1",
    "IC50": "18.4 µM (active)"
  },
  {
    "Compound": "O=C(O)c1cccc(-c2ccc(/C=N/NC(=O)c3cccnc3)o2)c1",
    "IC50": "37.5 µM (active)"
  },
  {
    "Compound": "Cc1[nH]c2ccccc2c1N=Nc1cccc(C(=O)O)c1",
    "IC50": "80.8 µM (active)"
  }
]

====

- Experimental Target: Short transient receptor potential channel 4 (Mus musculus)
- Sequence (Q9QUQ5 whole entry): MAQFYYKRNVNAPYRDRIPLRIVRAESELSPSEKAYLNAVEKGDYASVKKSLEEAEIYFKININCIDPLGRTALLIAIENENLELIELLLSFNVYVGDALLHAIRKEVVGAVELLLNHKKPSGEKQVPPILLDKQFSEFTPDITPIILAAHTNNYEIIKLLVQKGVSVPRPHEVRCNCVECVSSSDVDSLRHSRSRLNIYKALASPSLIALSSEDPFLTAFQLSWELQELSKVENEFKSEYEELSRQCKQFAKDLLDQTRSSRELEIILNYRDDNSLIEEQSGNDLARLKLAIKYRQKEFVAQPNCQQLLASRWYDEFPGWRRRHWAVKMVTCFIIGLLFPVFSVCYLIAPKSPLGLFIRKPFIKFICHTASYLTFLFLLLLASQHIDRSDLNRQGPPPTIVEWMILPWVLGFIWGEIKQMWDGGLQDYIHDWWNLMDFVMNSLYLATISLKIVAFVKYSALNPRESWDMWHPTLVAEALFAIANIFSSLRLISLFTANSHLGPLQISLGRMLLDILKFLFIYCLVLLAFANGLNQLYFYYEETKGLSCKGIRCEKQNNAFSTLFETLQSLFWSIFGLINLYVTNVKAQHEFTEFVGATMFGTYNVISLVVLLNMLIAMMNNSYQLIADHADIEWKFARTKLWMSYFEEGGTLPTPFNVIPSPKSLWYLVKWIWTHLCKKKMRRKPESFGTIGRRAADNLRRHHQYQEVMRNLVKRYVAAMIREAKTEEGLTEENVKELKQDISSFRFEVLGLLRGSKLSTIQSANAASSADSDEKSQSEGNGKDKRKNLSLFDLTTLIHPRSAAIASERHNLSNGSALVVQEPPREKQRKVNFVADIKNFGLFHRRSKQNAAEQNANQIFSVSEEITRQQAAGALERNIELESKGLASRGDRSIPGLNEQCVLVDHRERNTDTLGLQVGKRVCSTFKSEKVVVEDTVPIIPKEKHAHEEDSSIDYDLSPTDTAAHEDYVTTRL
- Method Description: calcium entry via TRPC4 opening agents – cell-based, HEK293 TRPC4/mu-opioid, Fluo-4 calcium, dose response (AID 434937)
- Type: functional
Activity calls are given as the source filed them. The rule behind the calls is not given here.

[
  {
    "Molecule": "Cc1ccc(NS(=O)(=O)c2ccc(C(=O)N3CC(C)CC(C)C3)cc2)cc1 (stereo not drawn)",
    "Experimental Target": "Short transient receptor potential channel 4 (Mus musculus)",
    "EC50": "4.22 µM (active)"
  },
  {
    "Molecule": "O=C(Cc1cccc(F)c1F)NC1CCCN(Cc2ccc(Cl)cc2)C1 (stereo not drawn)",
    "Experimental Target": "Short transient receptor potential channel 4 (Mus musculus)",
    "EC50": "0.944 µM (active)"
  },
  {
    "Molecule": "Cn1c(=O)c2c(nc(CN3CCc4ccccc4C3)n2Cc2ccccc2F)n(C)c1=O",
    "Experimental Target": "Short transient receptor potential channel 4 (Mus musculus)",
    "EC50": "5.31 µM (active)"
  },
  {
    "Molecule": "COc1cc(OC)cc(C(=O)NCCCN2CCN(CCCNC(=O)c3cc(OC)cc(OC)c3)CC2)c1",
    "Experimental Target": "Short transient receptor potential channel 4 (Mus musculus)",
    "EC50": "0.188 µM (active)"
  },
  {
    "Molecule": "COc1cc(OC)cc(C(=O)NC(=S)NNC(=O)[C@H]2C[C@@H]2c2ccccc2)c1",
    "Experimental Target": "Short transient receptor potential channel 4 (Mus musculus)",
    "EC50": "2.99 µM (active)"
  },
  {
    "Molecule": "CCOC(=O)C1(CCOC)CCN(Cc2ccccc2-c2ccco2)CC1",
    "Experimental Target": "Short transient receptor potential channel 4 (Mus musculus)",
    "EC50": "0.299 µM (active)"
  },
  {
    "Molecule": "CCn1cc(CN2CCC(n3nccc3NC(=O)CCCc3ccccc3)CC2)cn1",
    "Experimental Target": "Short transient receptor potential channel 4 (Mus musculus)",
    "EC50": "1.33 µM (active)"
  },
  {
    "Molecule": "O=C(CC(=O)c1c(F)cccc1Cl)c1ccccc1O",
    "Experimental Target": "Short transient receptor potential channel 4 (Mus musculus)",
    "EC50": "10.6 µM (active)"
  }
]
